All values here come from PubChem BioAssay (Tox21).

biological target: Glucocorticoid receptor (Homo sapiens) (UniProt P04150); experiment: qHTS assay to identify small molecule antagonists of the glucocorticoid receptor (GR) signaling pathway (AID 720692); settings: GR-bla HeLa, beta-lactamase FRET ratio, dexamethasone-stimulated, 18 h; series mostly up to 58.5 µM
Sequence (P04150 whole entry, looked up): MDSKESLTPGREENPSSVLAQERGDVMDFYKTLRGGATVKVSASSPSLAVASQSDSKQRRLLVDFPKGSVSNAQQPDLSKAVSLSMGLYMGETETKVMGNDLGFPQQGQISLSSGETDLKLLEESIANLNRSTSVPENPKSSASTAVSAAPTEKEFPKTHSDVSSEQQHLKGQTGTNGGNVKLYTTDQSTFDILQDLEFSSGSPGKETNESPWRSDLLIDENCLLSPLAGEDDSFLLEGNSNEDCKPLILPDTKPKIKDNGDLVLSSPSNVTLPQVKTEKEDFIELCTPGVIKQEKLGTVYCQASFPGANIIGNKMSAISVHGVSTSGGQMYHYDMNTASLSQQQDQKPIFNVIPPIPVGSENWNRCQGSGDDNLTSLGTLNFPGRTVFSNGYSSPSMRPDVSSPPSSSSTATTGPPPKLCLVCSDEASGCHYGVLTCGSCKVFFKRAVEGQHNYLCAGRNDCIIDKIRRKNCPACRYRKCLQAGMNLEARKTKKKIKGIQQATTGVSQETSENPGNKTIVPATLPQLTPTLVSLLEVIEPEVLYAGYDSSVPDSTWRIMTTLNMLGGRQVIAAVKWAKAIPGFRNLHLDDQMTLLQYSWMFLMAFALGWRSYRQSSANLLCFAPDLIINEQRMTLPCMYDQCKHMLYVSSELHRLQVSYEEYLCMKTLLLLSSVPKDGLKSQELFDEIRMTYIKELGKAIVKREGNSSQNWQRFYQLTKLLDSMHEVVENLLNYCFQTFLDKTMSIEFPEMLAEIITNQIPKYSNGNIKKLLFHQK
Results filed as inconclusive are left out. Calls of active or inactive are those of the source. Calls follow the shape of the dose curve; as a rule, active = well fitted inhibition curve with a large enough effect in the signal ratio in the repeat runs (not every such curve was filed as active); inconclusive = weak or mixed curves, or effect the other way; inactive = no such curve, though single readings can be large or run the other way; the % refers to the signal ratio.
Classes used: active, inactive

> print(dat)
                                   compound  classification
1                                Nc1ccncc1N        inactive
2  C[C@H]1C[C@H]2[C@@H]3CCC4=CC(=O)C=C[C@]4(C)[C@H]3C(=O)C[C@]2(C)[C@@]1(O)C(=O)CO          active
3                     CCCC[N+](C)(CCCC)CCCC        inactive
4                        CCCCOC(=O)CCC(C)=O        inactive
5             NC(=O)N[C@@H](CCC(=O)O)C(=O)O        inactive
6              CCOc1ccc2nc(S(N)(=O)=O)sc2c1        inactive
7            CC(=O)N1C[C@H](O)C[C@H]1C(=O)O        inactive

====

target: Glucocorticoid receptor (Homo sapiens) (UniProt P04150); assay: qHTS assay to identify small molecule agonists of the glucocorticoid receptor (GR) signaling pathway (AID 720691); details: GR-bla HeLa, beta-lactamase reporter ratio, 18 h; series mostly up to 62.4 µM; as to activation: % is scaled to controls: 0 for no effect and ±100 for the full control effect
Records with an inconclusive call do not appear. Calls of active or inactive are those of the source. Calls come from the whole dose curve; as a rule, active = well fitted activation curve with a large enough effect in the signal ratio in the repeat runs (not every such curve was filed as active); inconclusive = weak or mixed curves, or effect the other way; inactive = no such curve, though single readings can be large or run the other way; the % refers to the signal ratio.
Classes used: 1 (active), 0 (inactive)

> print(dat)
                                    compound  classification
 1                       CCCCCCCCCCCCCCCCCCO               0
 2                 CN(C)C(=O)Oc1ccc[n+](C)c1               1
 3  CCCCc1nc(Cl)c(CO)n1Cc1ccc(-c2ccccc2-c2nn[nH]n2)cc1               0
 4                          CCCCCCC#CC(=O)OC               0
 5  COc1c(N2CCNC(C)C2)c(F)cc2c(=O)c(C(=O)O)cn(C3CC3)c12 (configuration not stated)               0
 6        CN1CC(=O)N/C1=N/C(=O)Nc1cccc(Cl)c1               0
 7  CC1OC1C1CCC2(C)OC2C1 (configuration not stated)               0
 8        O=C(CO)[C@@H](O)[C@H](O)[C@H](O)CO               0
 9                         CCCCCCCCN1CCCC1=O               0
10       CC1=NN(c2cccc(S(=O)(=O)O)c2)C(=O)C1               0
11  COc1cc(C(=O)NCc2ccc(OCCN(C)C)cc2)cc(OC)c1OC               0
12  CN(C)[C@@H]1C(=O)C(C(=O)NCN2CCCC2)=C(O)[C@@]2(O)C(=O)C3=C(O)c4c(O)cccc4[C@@](C)(O)C3C[C@@H]12 (some centres not stated)               0

====

experiment: qHTS assay for small molecule agonists of the antioxidant response element (ARE) signaling pathway - cell viability counter screen (AID 743203); details: ARE-bla HepG2 viability, CellTiter-Glo luminescence, 16 h; series mostly up to 73.3 µM; also: % is scaled to controls: 0 for no effect and ±100 for the full control effect; nearly all actives have a fitted effect of over 55% in size
Records with an inconclusive call do not appear. Activity calls are given as the source filed them. Calls come from the whole dose curve.
METRIC: viability change, negative = cytotoxic

> print(dat)
                                   compound                                  metric                           value
1                     O=C(O)CNC(=O)c1ccccc1  viability change, negative = cytotoxic                        inactive
2                      CCN(CC#N)c1cccc(C)c1  viability change, negative = cytotoxic                        inactive
3  CO/N=C(\C(=O)N[C@@H]1C(=O)N2C(C(=O)O)=C(CSc3nc(=O)c(O)nn3C)CS[C@H]12)c1csc(N)n1  viability change, negative = cytotoxic                        inactive
4  Cc1cc(C)c(N=Nc2c(O)c(S(=O)(=O)O)cc3cc(S(=O)(=O)O)ccc23)cc1C  viability change, negative = cytotoxic  -2.33% [at 8.36 µM] (inactive)
5             NC(=O)N[C@@H](CCC(=O)O)C(=O)O  viability change, negative = cytotoxic                        inactive
6  CC(=O)OCC(=O)[C@@]1(O)[C@H](C)C[C@H]2[C@@H]3CCC4=CC(=O)C=C[C@]4(C)[C@@]3(F)[C@@H](O)C[C@@]21C  viability change, negative = cytotoxic                        inactive

====

Assay: qHTS assay to identify small molecule antagonists of the estrogen related receptor signaling pathway with the pleiotropic PPARgamma coactivator (PGC) from Tox21 10K library (AID 1224841); also: actives are mostly falling curves and most rising ones were filed inactive; nearly all actives have a fitted effect of over 50% in size
Conditions: PGC/ERR reporter cell line, ONE-Glo luciferase, 18 h; series mostly up to 92.4 µM
Source text: U.S. Tox21 Program National Center for Advancing Translational Sciences [NCATS] NIH Chemical Genomics Center [NCGC] U.S. Environmental Protection Agency [EPA] National Institutes of Environmental Health Sciences [NIEHS] National Toxicology Program [NTP] U.S. Food and Drug Administration [FDA] Tox21 Assay Overview: Estrogen related receptors (ERRs), the first orphan nuclear receptors discovered, play an important role in the control of cellular energy metabolism. […]
Records with an inconclusive call do not appear. The source made the active and inactive calls. The rule behind the calls is not given here.
Classes used: active, inactive

> print(dat)
                                    compound  classification
 1                                   OCCCCCO        inactive
 2  COc1cc2c(cc1OC)-c1cc3ccc(OC)c(OC)c3c[n+]1CC2          active
 3           Cc1cccc(C)c1NC(=O)CC12CCCN1CCC2        inactive
 4                      c1ccc(CCc2ccccc2)cc1        inactive
 5         Cc1ccc(C(=O)c2ccc(CC(=O)O)n2C)cc1        inactive
 6     CC(C)(C)c1ccc(-c2ccc(C(C)(C)C)cc2)cc1        inactive
 7                  CCCO[Si](OCCC)(OCCC)OCCC        inactive
 8  Nc1ccn([C@@H]2O[C@H](CO)[C@@H](O)C2O)c(=O)n1 (some centres not stated)        inactive
 9                           O=Cc1cccc(Br)c1        inactive
10  CNCC(O)c1ccc(O)c(O)c1 (configuration not stated)        inactive
11                    CCN(Cc1ccccc1)c1ccccc1          active
12            O=S(=O)(O)c1cccc(S(=O)(=O)O)c1        inactive
13  C[C@H]1C[C@H]2[C@@H]3CCC4=CC(=O)C=C[C@]4(C)[C@H]3C(=O)C[C@]2(C)[C@@]1(O)C(=O)CO        inactive
14  CC(COc1ccccc1)NN (configuration not stated)        inactive
15  CCC(C(=O)NC(=O)NC(C)=O)c1ccccc1 (configuration not stated)        inactive
16  O=C(O)CC(C(=O)O)S(=O)(=O)O (configuration not stated)        inactive
17                         CCCCCCCCN1CCCC1=O        inactive
18  COCCOC[C@H](CC1(C(=O)NC2CCC(C(=O)O)CC2)CCCC1)C(=O)Oc1ccc2c(c1)CCC2 (some centres not stated)        inactive
19                  O=S(=O)(O)c1cccc2ccccc12        inactive
20                     C[C@@H]1CCC[C@H](C)N1        inactive
21                      Clc1cc(Cl)c(Cl)nc1Cl        inactive
22                          CCOC(=O)c1ccccc1        inactive
23                          CN(C)CCCCCCN(C)C        inactive
24  COC(=O)C1=C(C)NC(C)=C(C(=O)OC(C)C)C1c1cccc2nonc12 (configuration not stated)        inactive
25  Cc1nc(C2CCCCC2)c(-c2ccc(S(N)(=O)=O)c(F)c2)o1        inactive
26  CC(=O)OCC(=O)[C@@]1(O)[C@H](C)C[C@H]2[C@@H]3CCC4=CC(=O)C=C[C@]4(C)[C@@]3(F)[C@@H](O)C[C@@]21C        inactive
27                  NS(=O)(=O)Cc1noc2ccccc12        inactive
